Experiment: antimalarial activity against Dd2 strain (AID 2302);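 note: 0% = DMSO untreated growth and 100% = chloroquine plus artemisinin killed control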
Details: P. falciparum Dd2 in RBCs, LDH growth readout, 72 h; at 2 µM; stronger effect = higher value
Provide the reported growth inhibition of each item.
Provide the reading as a plain figure in %.

## Task Value lookup for growth inhibition; key = Cc1nc(N)nc(N)c1OCCCOc1ccccc1Br
## Result 96

## Task Would you mind doing Cc1cnc(CNCc2ccc(S(=O)(=O)Nc3ccc(Oc4cccc(Cl)c4)cc3)cc2)cn1 as well?
## Result -1

## Task Would you mind doing Cc1cccc2c3c([nH]c12)C1(CCN(Cc2ccccc2)CC1)NC(C(=O)NCc1ccccc1)C3 (stereo not drawn) as well?
## Result 8

## Task Would you mind doing Cc1cc(NCCc2cccc(F)c2)nc(/N=C(\N)Nc2cccc(C(F)(F)F)c2)n1 as well?
## Result 99

## Task Would you mind doing Cc1ccoc1C(=O)Nc1cccc(-c2cccc(-c3nc4c(C)cccc4[nH]3)c2)c1 as well?
## Result 79

## Task Would you mind doing O=c1cc(NC[C@@H]2CCC[C@@H]2NCc2ccc(Cl)c(Cl)c2)[nH]c2ccccc12 as well?
## Result 75

## Task Would you mind doing c1ccc(CNCCn2c(-c3ccc4c(c3)CCO4)nc3c(N4CCCC4)cccc32)cc1 as well?
## Result 85

## Task Would you mind doing CCOc1cc(C(C)C)ccc1N1CCN(CCCCNC(=O)c2ccc(NC(=O)c3ccc(Cl)cc3)cc2)CC1 as well?
## Result 97

## Task Would you mind doing COc1ccc(N2CCN(CCCCNC(=O)c3ccc(NC(=O)c4ccc(OC(F)(F)F)cc4)cc3)CC2)c(OC)c1 as well?
## Result 90

## Task Would you mind doing COc1ccc(C(=O)CCC(=O)N(CCC2CCCN2C)Cc2ccc(-c3ccc(CNCCc4ccc(S(C)(=O)=O)cc4)cn3)cc2)cc1F (stereo not drawn) as well?
## Result 45

## Task Would you mind doing CC(C)CNCc1ccc(-c2cccc(CN(CCN(C)C)C(=O)NCCc3ccccc3)c2)cc1 as well?
## Result 37

## Task Would you mind doing N#CN1CC[C@@H](OC(=O)N[C@@H]2C[C@H]2c2ccccc2)C1 as well?
## Result 56

## Task Would you mind doing Cc1cccc(C(=O)NC(NC(=S)Nc2ccc([N+](=O)[O-])cc2)C(Cl)(Cl)Cl)c1 (stereo not drawn) as well?
## Result 66

## Task Would you mind doing Oc1ccc(CCNc2nc(NCc3cccc(OCc4cccc(F)c4)c3)nc(N3CCNCC3)n2)cc1 as well?
## Result -7

## Task Would you mind doing O=C(Nc1ccc(OC2CCN(Cc3ccccc3)CC2)c(Cl)c1)c1ccsc1 as well?
## Result 92

## Task Would you mind doing CS(=O)(=O)CCCNCc1ccc(-c2cc3c(Nc4ccc(OCc5ccccc5)cc4)ncnc3cn2)o1 as well?
## Result 16

## Task Would you mind doing COc1cc2nc(NCCc3ccccc3)nc(NCCc3ccccc3)c2cc1OC as well?
## Result 100

## Task Would you mind doing CCc1sc(-c2ccc(C(C)(C)C)cc2)nc1C(=O)NCCCN1CCCC1=O as well?
## Result 69

## Task Would you mind doing CC(C)=CCN1CCC(C(=O)Nc2ccc(-c3nc4ccccc4[nH]3)cc2)CC1 as well?
## Result -1

## Task Would you mind doing O=C(CN1CCCC1)Nc1cccc(C(=O)Nc2cccc(C(F)(F)F)c2)c1 as well?
## Result 83

## Task Would you mind doing Cc1cc(CN2CCC(N3CC(c4ccccc4)(c4ccccc4)OC3=O)C2)ccc1O (stereo not drawn) as well?
## Result 68

## Task Would you mind doing CS(=O)(=O)Nc1cccc(-c2cnc3[nH]cc(-c4ccc(CCC(=O)O)cc4)c3c2)c1 as well?
## Result 78

## Task Would you mind doing CC(CCON1C(N)=NC(N)=NC1(C)C)c1ccc(Cl)cc1 (stereo not drawn) as well?
## Result 97

## Task Would you mind doing O=S(=O)(Nc1cccc(CCN2CCC(N3CCCCC3)CC2)c1)c1ccc(Oc2ccccc2)nc1 as well?
## Result -4

## Task Would you mind doing CCCC(=O)c1cnc2c(I)cccc2c1Nc1ccccc1C as well?
## Result 26

## Task Would you mind doing O=C(NC1CCCCC1)N(Cc1ccc(-c2ccc(CNC3CCCC3)cc2)cc1)C1CCN(Cc2ccccc2)CC1 as well?
## Result 86

## Task Would you mind doing O=C(Nc1ccccc1)Nc1cccc(-c2cccc(-c3nc4ccc(F)cc4[nH]3)c2)c1 as well?
## Result 41

## Task Would you mind doing Cc1nc(N)nc(N)c1Oc1cccc(Cl)c1 as well?
## Result -3

## Task Would you mind doing CS(=O)(=O)N(c1cccc(F)c1)c1cc(C(=O)N[C@@H](Cc2ccccc2)[C@H](O)CNCc2cccc(C(F)(F)F)c2)cc(N2CCCC2=O)c1 as well?
## Result 92

## Task Would you mind doing COc1c(C2CCN(CCCCNC(=O)c3oc(-c4ccc(Cl)cc4)cc3CO)CC2)ccc2c1CCCC2 as well?
## Result 95

## Task Would you mind doing OCC1CCN(Cc2cccc(-c3ccc(-c4nc5ccc(F)cc5[nH]4)cc3)c2)CC1 as well?
## Result 86

## Task Would you mind doing CO/C(=C\C=C\c1cc2cc(Cl)c(Cl)cc2[nH]1)C(=O)NCCCN1CCCC[C@H]1C as well?
## Result 91

## Task Would you mind doing COc1ccc(NC(=O)Nc2ccc(-c3ccc(-c4nc5c(C)cccc5[nH]4)s3)cc2)cc1 as well?
## Result 96

## Task Would you mind doing CN1CCC(NCc2cccc(-c3ccc(S(=O)(=O)NCCN4CCCC4)s3)c2)CC1 as well?
## Result 1

## Task Would you mind doing CN(C)c1ccc(C=C2SC(=N)N(c3nccs3)C2=O)cc1 as well?
## Result 50

## Task Would you mind doing O=C(/C=C/c1ccc(Cl)c(Cl)c1)N1CCN(C(=O)Nc2cccc(C(F)(F)F)c2)CC1 as well?
## Result 100

## Task Would you mind doing COc1ccc2ncc(F)c(CCN3CC[C@H](NC(=O)c4ccc5c(n4)NC(=O)CS5)[C@H](O)C3)c2n1 as well?
## Result 88

## Task Would you mind doing COc1ccc2nccc([C@@H](O)CN3CCC(NC(=O)c4ccc(Oc5ccccc5)cc4)CC3)c2c1 as well?
## Result 13
